Measured pest or weed control at 140 g/ha values are reported for all entries that follow.
Tested on: Key Grass and Sedge Weeds as well as Grass Crops
Assay: Post-emergent Test II herbicidal activity (Table 6)
Assay type: in vivo
Conditions: post-emergence, 336 h, SORVU: grain sorghum (Sorghum vulgare), application rate 140 g ai/ha, read-out: Visual Growth Reduction (%) 14 Days After Application, SORVU

Some compounds with known pest or weed control at 140 g/ha results, for comparison:
{"columns": ["smiles-code", "pest or weed control at 140 g/ha"],
 "data": [
  ["C#Cc1ccc(-c2nc(N)c(OC)c(C(=O)O)n2)c(F)c1F", "0 to 29%"],
  ["Nc1c(Cl)c(C(=O)O)nc(-c2ccc(Br)cc2)c1Cl", "85 to 94%"]
]}

What value of measured pest or weed control at 140 g/ha is listed for COC(=O)c1nc(-c2cc(F)c(C(F)(F)F)cc2F)cc(N)c1Cl ?
95 to 100%

What value of measured pest or weed control at 140 g/ha is listed for C=Cc1c(C(=O)OC)nc(-c2ccc(C#N)cc2)c(F)c1N ?
0 to 29%
